B1: ZBTB22 (parent)
chain: FSSSSQEAFAASAVGSGERRGGGP

variants of: B1; assay: protein stability index of a GFP-peptide fusion (GPS, HEK-293T) (PSI 1-6); higher = more stable; conditions: c terminus: a fixed tail appended;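 note: lentivirally expressed fusions sorted by FACS into six bins by GFP to DsRed ratio, PSI derived from sequencing read proportions per bin multiplied by bin number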
Rule: protein stability index under 3 gives n, otherwise y.

Example entries and their recorded answers appear below.
FSSSSQEAFAASAVGSGGRRGGGP : y
FSSSSQEAFAADAVGSGERRGGGP : y
FSHSSQEAFAASAVGSGERRGGGP : y
FSSFSQEAFAASAVGSGERRGGGP : n
FSSSSQEAFAASAVGSGERRCGGP : y

Problem: Hi, just wondering whether `FSMSSQEAFAASAVGSGERRGGGP` shows protein stability index of 3 or higher.
Result: y

Problem: Hi, just wondering whether `QSSSSQEAFAASAVGSGERRGGGP` shows protein stability index of 3 or higher.
Result: y

Problem: Hi, just wondering whether `FCSSSQEAFAASAVGSGERRGGGP` shows protein stability index of 3 or higher.
Result: n

Problem: Hi, just wondering whether `FKSSSQEAFAASAVGSGERRGGGP` shows protein stability index of 3 or higher.
Result: y
